ASSAYED_SYSTEM: T1, human CD39 recombinant antigen (UniProt P49961 38-478)
T1 chain: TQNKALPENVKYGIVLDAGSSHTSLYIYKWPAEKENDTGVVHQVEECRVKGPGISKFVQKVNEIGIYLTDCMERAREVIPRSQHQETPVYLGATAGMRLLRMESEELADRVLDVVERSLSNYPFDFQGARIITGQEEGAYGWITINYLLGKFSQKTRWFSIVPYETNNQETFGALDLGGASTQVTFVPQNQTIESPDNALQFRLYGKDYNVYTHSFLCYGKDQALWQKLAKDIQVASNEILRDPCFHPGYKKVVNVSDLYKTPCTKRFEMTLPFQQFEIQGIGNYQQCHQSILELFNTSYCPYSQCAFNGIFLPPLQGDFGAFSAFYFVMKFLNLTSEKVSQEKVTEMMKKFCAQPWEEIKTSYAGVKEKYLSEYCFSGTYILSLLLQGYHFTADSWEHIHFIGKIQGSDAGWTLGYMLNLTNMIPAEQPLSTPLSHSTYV
EXPERIMENT_NOTES: SPR
The reader will find reported Kd values listed item by item below.
Answer format: numeric, nM implied, no suffix.

>>> reported("I67_sc (antibody, V domains shown) VH: DVQLQESGPSLVQPSQSLSINCTVSGFSLSSYGVHWVRQSPGKGLEWLGVIWRRGSTDYNAAFMSRLSITKDNSKSQVFFKMNRLQADDTATYYCAKGISTATSWFAYWGQGTLVTVSA VL: DIVMTQSHKFMSTSVGDRVSVTCKASQNVGTNVAWYQQKPGQSPKALIYSASYRYSGVPDRFTGSGSGTDFTLTISNVQSEDLAEYFCQQYNSYPLTFGAGTKLELK")
1.65

mAnE67_sc (antibody, V domains shown) VH: EVQLVESGGGLVKPGGSRKLSCAASGFTFSDYGMHWVRQAPEKGLEWVAYISSGSSIIYYADTVKGRFTISRDNAKNTLFLQMTGLRSEDTAMYYCARKDYPYAMDYWGQGTSLAVSS VL: DIVMTQSHKSMSTSVGDRVSVTCKASQNVGTNVAWYQQKPGQSPKALIYSASYRYSGVPDRFTGSGSGTDFTLTISNVQSEDLAEYFCQQYNSYPLTFGGGTKLEIK has a reported Kd of 4.75

P4_sc (Fc fusion) VH: QVQLKESGPSLVQPSQSLSITCTVSGFSLTNYGVHWVRQSPGKGLEWLGVILRRGSTDYNAAFMSRLSITKDNSKSQVFFKMNSLQADDTAIYYCAKTAVVAGDYFDYWGQGTTLTVSS VL: DIVMTQSHKFMSTSVGDRVSVTCKASQNVGTNVAWYQQKPGQSPKALIYSASYRYSGVPDRFTGSGSGTDFTLTISNVQSEDLAEYFCQQYNSYPLTFGTGTKLEIK has a reported Kd of 0.307

HuP4_51_sc (antibody, V domains shown) VH: QVQLVESGGGVVQPGGSLRLSCVVSGFSLTNYGVHWVRQAPGKGLEWLGVILRRGSTDYNAAFMSRLAISKDNSKNTVYLELNSLRLDDTAVYYCAKTAVVAGDYFDYWGQGTTVTVSS VL: DIVMTQSQKFMSTSVGDRVSITCKASQNVGTNVAWYQQKPGQSPKLLIYSASYRYSGVPDRFTGSGSGTDFTLTISNMQSEDLADYFCQQYNSYPLTFGGGTKLEIK has a reported Kd of 0.369

HuP4_41_sc (antibody, V domains shown) VH: QVQLVESGGGVVQPGGSLRLSCVVSGFTLTNYGVHWVRQAPGKGLEWLAVILRRGSTDYNAAFMSRLAISKDNSKNTVYLELNSLRLDDTAVYYCAKTAVVAGDYFDYWGQGTTVTVSS VL: DIVMTQSQKFMSTSVGDRVSITCKASQNVGTNVAWYQQKPGQSPKLLIYSASYRYSGVPDRFTGSGSGTDFTLTISNMQSEDLADYFCQQYNSYPLTFGGGTKLEIK has a reported Kd of 0.106

Tre_291_sc (antibody, V domains shown) VH: QVQLKQSGPGLVQPSQSLSITCTVSGFSLTSYGVHWVRQSPGKGLEWLGVIWRRGSTDYNAAFMSRLSITKDTSKSQVFFKMNSLQTDDTAIYYCAGVRGDAMDYWGQGTSVTVSS VL: DIVMTQSHKSMSTSVGDRVSVTCKASQNVGTNVAWYQQKPGQSPKALIYSASYRYSGVPDRFTGSGSGTDFTLTISNVQSEDLAEYFCQQYNSYPLTFGGGTKLEIK has a reported Kd of 2.22
